- Organism: Rattus norvegicus
- measurement.notes: Ratio of distribution of the [131I]-labeled compound at 30 min in rat heart over uptake in blood
- Type: ADME, organism-based
- test.conditions: other tissue, 0.5 h
Output class 1 for Ratio not less than 2; output class 0 otherwise.

// known answers, use as guide
* COc1cc(CC(C)N)c(OC)cc1I (stereo not given) | class 1
* COc1cc(CC(C)NCc2ccccc2)c(OC)cc1I (stereo not given) | class 1
* COc1cc(CC(C)NCC#N)c(OC)cc1I (stereo not given) | class 1
* COc1cc(CC(C)NN)c(OC)cc1I (stereo not given) | class 1
* CCCCCCCCCCCCNC(C)Cc1cc(OC)c(I)cc1OC (stereo not given) | class 0

**Q:** Identify whether the reported Ratio of the following compound is 2 or greater: COc1cc(CC(C)NCC2CC2)c(OC)cc1I (stereo not given)
**A:** class 1

**Q:** Identify whether the reported Ratio of the following compound is 2 or greater: COc1cc(CC(C)N(C)Cc2ccccc2)c(OC)cc1I (stereo not given)
**A:** class 1

**Q:** Identify whether the reported Ratio of the following compound is 2 or greater: CCCCCCNC(C)Cc1cc(OC)c(I)cc1OC (stereo not given)
**A:** class 1
